phosphorylation enrichment overview
target: FGFR1 (UniProt P11362); assay: phosphorylation enrichment, bacterial display (enrichment ratio); higher = better substrate or ligand; peptides without Tyr show the background;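 note: 11-residue human phosphosite peptides and single-mutation variants displayed on the E. coli surface, counted by deep sequencing, each peptide's frequency after selection divided by its frequency in the unselected input library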;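 note: frequency after pTyr selection over input frequency; kinase dosed for 20-30% of maximal phosphorylation in three min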
Sequence (P11362 whole entry, looked up): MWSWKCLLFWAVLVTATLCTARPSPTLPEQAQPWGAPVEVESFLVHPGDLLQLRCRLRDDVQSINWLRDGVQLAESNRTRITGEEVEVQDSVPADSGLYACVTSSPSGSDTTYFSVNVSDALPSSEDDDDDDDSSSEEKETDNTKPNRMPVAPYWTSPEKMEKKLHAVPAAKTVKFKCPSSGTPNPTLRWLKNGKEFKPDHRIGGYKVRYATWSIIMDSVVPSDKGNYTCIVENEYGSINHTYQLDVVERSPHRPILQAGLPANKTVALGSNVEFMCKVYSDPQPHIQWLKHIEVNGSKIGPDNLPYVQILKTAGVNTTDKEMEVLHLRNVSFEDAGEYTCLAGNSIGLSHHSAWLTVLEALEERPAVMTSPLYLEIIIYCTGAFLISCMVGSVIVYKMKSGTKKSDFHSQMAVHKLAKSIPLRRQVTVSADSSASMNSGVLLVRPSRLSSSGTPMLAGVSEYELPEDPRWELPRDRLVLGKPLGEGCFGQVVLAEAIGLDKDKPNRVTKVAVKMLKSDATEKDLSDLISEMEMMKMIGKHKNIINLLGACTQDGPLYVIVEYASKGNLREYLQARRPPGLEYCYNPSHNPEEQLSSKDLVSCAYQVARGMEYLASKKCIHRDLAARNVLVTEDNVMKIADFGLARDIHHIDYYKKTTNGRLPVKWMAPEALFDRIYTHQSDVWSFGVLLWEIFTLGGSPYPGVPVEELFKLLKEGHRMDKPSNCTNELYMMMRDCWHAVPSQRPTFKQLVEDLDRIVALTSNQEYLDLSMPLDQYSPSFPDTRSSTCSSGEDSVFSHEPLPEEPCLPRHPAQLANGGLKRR
Give your answer as a number; write no unit.

Consider the following illustrative entries.
{"CHAIN": "RRERPYGGGGG [FUS_Y526]", "phosphorylation enrichment": 0.554}
{"CHAIN": "MSRLKYPVSQQ [BTK_Y375_I370M]", "phosphorylation enrichment": 0.434}
{"CHAIN": "PSPMPCASCQM [FOXL2_Y215_Y215C]", "phosphorylation enrichment": 0.445}
{"CHAIN": "GYRPVYSEDEQ [CHST6_Y362]", "phosphorylation enrichment": 0.471}
{"CHAIN": "TFINKYQGKLF [HGD_Y249_V245F]", "phosphorylation enrichment": 0.387}

Given the entry SHLLRYLSWTV [CLCNKB_Y93] , report its measured phosphorylation enrichment. 0.684

Consider the sequence AGRSGYDNREI [BCL2_Y9_T7S] and give its measured phosphorylation enrichment. 0.366

Could you tell me which phosphorylation enrichment is on file for VPFAQYLAMNK [HARS1_Y138_R137Q] ? 0.494

Could you share which phosphorylation enrichment value was measured for NKEAICSGYIR [SMCHD1_Y283_Y283C] ? 0.509

Request the reported phosphorylation enrichment associated with PLDGESFTLQI [TP53_Y327_Y327S] 0.634

phosphorylation enrichment for VIEFSYTSADG [DHCR7_Y382_C380Y_YF] ? 0.444

Reported phosphorylation enrichment, sequence DLDTEYGSGYP [RNASEH2A_Y206_D205E] : ____ 0.507

Param item = EALDFYGEVRI [PTEN_Y155_T160I] ; retrieve measured phosphorylation enrichment. 0.538

Could you tell me which phosphorylation enrichment is on file for LTDLRYKVSGL ? 0.496

// lookup phosphorylation enrichment for SFPSTYRYERG [INPPL1_Y661_P659S] 0.39

Need phosphorylation enrichment, item RETLTYAQAQG [BRD1_Y33_R38G] 0.916
